Origin of measurements: patent US20200231654A1

- target-under-test: active hMMP-9(cat)_His6 (UniProt P14780 107-449)
- Sequence (P14780 107-449): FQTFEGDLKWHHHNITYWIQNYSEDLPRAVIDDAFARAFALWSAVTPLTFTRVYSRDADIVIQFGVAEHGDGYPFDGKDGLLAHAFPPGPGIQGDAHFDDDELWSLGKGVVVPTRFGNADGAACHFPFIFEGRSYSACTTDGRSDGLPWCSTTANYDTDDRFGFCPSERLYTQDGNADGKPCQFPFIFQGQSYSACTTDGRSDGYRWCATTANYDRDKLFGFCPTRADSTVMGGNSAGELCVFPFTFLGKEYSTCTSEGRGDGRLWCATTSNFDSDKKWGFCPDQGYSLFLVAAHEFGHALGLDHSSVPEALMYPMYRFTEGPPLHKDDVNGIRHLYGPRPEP
- assay-name: enzyme inhibition; substrate gelatin
Items are presented alongside their recorded IC50.
Could you give the number and then its unit, please?

These solved cases illustrate the format of a correct answer.
active MMP-9-binding peptide M91005 (designed binder) GSGMKETAAAKFERQHMDSPDLGTDDDDKAMADIGSANSDPQFGLFSKYRTPNCRKRGGPSCQMSYNPVCGSDMSTYANECTLCMKIREGGHNIKIIRNGPCGASAAA    8.2 nM
active MMP-9-binding peptide M91002 (designed binder) GSGMKETAAAKFERQHMDSPDLGTDDDDKAMADIGSANSDPQFGLFSKYRTPNCRTGRGPACQMGFQPVCGSDMSTYANECTLCMKIREGGHNIKIIRNGPCGASAAA    8.5 nM

Supply reported IC50 belonging to this binder: active MMP-9-binding peptide M91001 (designed binder) GSGMKETAAAKFERQHMDSPDLGTDDDDKAMADIGSANSDPQFGLFSKYRTPNCQRGIGPSCQMSYKPVCGSDMSTYANECTLCMKIREGGHNIKIIRNGPCGASAAA
8.3 nM

Supply reported IC50 belonging to this binder: active MMP-9-binding peptide M91012 (designed binder) GSGMKETAAAKFERQHMDSPDLGTDDDDKAMADIGSANSDPQFGLFSKYRTPNCRVRGGPSCQMSFNPVCGSDMSTYANECTLCMKIREGGHNIKIIRNGPCGASAAA
8.6 nM
